Measured values drawn from the Immune Epitope Database (IEDB) for this set.

- System name: HLA-A*02:01
- Experimental protocol: IEDB peptide-MHC binding, purified MHC/competitive/fluorescence; filed as Kd, often an IC50 or EC50 that approximates it; bounds were set here for any values at or beyond the usual limits of such assays
- Protocol conditions: source organism: Entamoeba histolytica HM-1:IMSS
Recorded endpoint: pKd
Reminder that pKd means the negative base-10 logarithm of the concentration expressed in mol/L.

For this sequence ( "SLKERIDML" ), measured pKd is 8.89

====

- System name: HLA-A*69:01
- Experimental protocol: IEDB peptide-MHC binding, purified MHC/competitive/fluorescence; filed as Kd, often an IC50 or EC50 that approximates it; bounds were set here for any values at or beyond the usual limits of such assays
- Protocol conditions: source organism: dengue virus type 2
pKd: −log10 of the molar value.
Recorded endpoint: pKd

For this sequence ( "LVAGGLLTV" ), measured pKd is ≤ 4.70

====

- System name: HLA-B*27:03
- Experimental protocol: IEDB peptide-MHC binding, purified MHC/direct/fluorescence; filed as Kd, often an IC50 or EC50 that approximates it; bounds were set here for any values at or beyond the usual limits of such assays
- Protocol conditions: source organism: Rickettsia sibirica 246
Recorded endpoint: Kd

For this sequence ( "EFVSANLAM" ), measured Kd is ≥ 20 µM

====

- System name: HLA-A*32:07
- Experimental protocol: IEDB peptide-MHC binding, purified MHC/competitive/fluorescence; filed as Kd, often an IC50 or EC50 that approximates it; bounds were set here for any values at or beyond the usual limits of such assays
- Protocol conditions: source organism: Coxiella burnetii Dugway 5J108-111
Recorded endpoint: Kd (nM)
Give a bare numeral; the unit nM is implied.

For this sequence ( "MTFPVSLEY" ), measured Kd is 36.3

====

- System name: HLA-A*31:01
- Experimental protocol: IEDB peptide-MHC binding, purified MHC/competitive/radioactivity; filed as Kd, often an IC50 or EC50 that approximates it; bounds were set here for any values at or beyond the usual limits of such assays
- Protocol conditions: source organism: Vaccinia virus WR
pKd: −log10 of the molar value.
# label = 1 if pKd >= 6 else 0

Example entries begin here.
MLDTSEKYSK :: 0
KSGGLSSGFY :: 0
NIISRTRLY :: 0
SLFYTFAISY :: 0
TMKAIEKDR :: 1

Decide: is the reported value of pKd for "NVKHTSVSAK" equal to or greater than 6?
0

====

- System name: HLA-B*57:01
- Experimental protocol: IEDB peptide-MHC binding, purified MHC/direct/fluorescence; filed as Kd, often an IC50 or EC50 that approximates it; bounds were set here for any values at or beyond the usual limits of such assays
- Protocol conditions: source organism: Yellow fever virus
Recorded endpoint: pKd
Reminder that pKd means the negative base-10 logarithm of the concentration expressed in mol/L.

For this sequence ( "KIMKVVNRW" ), measured pKd is 6.88

====

- System name: HLA-A*02:01
- Experimental protocol: IEDB peptide-MHC binding, purified MHC/competitive/fluorescence; filed as Kd, often an IC50 or EC50 that approximates it; bounds were set here for any values at or beyond the usual limits of such assays
- Protocol conditions: source organism: Variola virus
Recorded endpoint: Kd (nM)
Give a bare numeral; the unit nM is implied.

For this sequence ( "DIRTLLPILL" ), measured Kd is 737
